# reported IC50; entries follow
# target or system: catalytic domain 2 (CD2) of HDAC6 (Homo sapiens (Human), UniProt Q9UBN7)
# Sequence (Q9UBN7 482-800): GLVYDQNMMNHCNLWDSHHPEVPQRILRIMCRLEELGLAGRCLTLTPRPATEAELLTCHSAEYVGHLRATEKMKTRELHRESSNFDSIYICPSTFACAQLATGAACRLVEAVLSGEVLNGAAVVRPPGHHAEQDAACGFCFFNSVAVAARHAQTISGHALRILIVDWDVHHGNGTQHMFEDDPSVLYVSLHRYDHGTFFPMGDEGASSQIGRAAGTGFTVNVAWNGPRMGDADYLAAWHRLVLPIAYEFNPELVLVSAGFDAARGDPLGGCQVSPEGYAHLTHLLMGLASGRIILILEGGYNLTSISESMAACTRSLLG
# test summary: Cellular target engagement assay - NanoBRET
# condition notes: NanoLuc-HDAC6(CD2) in HEK293T cells, 2 hours, read-out: IC50 (HDAC6(CD2) interaction)

> print(dat)
                                   molecule          value
1  Cc1nc(SCC(=O)c2ccc(CNC(=O)CO)s2)c2ccc(F)cc2n1  100 to 500 nM
2  Cc1nc(SCC(=O)c2ccc(CNC(=O)CO)s2)c2cc(N3CCCCC3)ccc2n1       ≤ 100 nM

// lookup IC50 for "COCCn1cc2c(SCC(=O)c3ccc(CNC(=O)CO)s3)nc(C(F)(F)F)nc2n1" ≤ 100 nM

I am curious: what IC50 value has been reported for "CN(Cc1ccc(C(=O)CSc2ncnc3c2cnn3C)s1)C(=O)C1CC1" ? 100 to 500 nM

Form field: reported IC50 of "Cc1nc(SCC(=O)c2ccc(CNC(=O)CO)s2)c2cc(Cl)c(F)cc2n1" ≤ 100 nM

So what does the record say about IC50 for CC1CCN(Cc2ccc(C(=O)CSc3ncnc4c3cnn4C)s2)C1=O (stereo not shown) ? 100 to 500 nM

Field request: IC50 | item: "O=C(CO)NCc1ccc(C(=O)CSc2nc(C(F)(F)F)nc3cccnc23)s1" ≤ 100 nM

Sample "Cc1nnc(SCC(=O)c2ccc(CNC(=O)C(C)(C)C)s2)c2ccccc12" — what was its IC50? 100 to 500 nM

Form field: reported IC50 of "CCOc1cc2c(SCC(=O)c3ccc(CNC(=O)CO)s3)nc(C)nc2cn1" ≤ 100 nM

What does the data say about its IC50? Entry: "O=C(CSc1nc(C(F)(F)F)nc2ncccc12)c1ccc(CN2CCCC2=O)s1" ≤ 100 nM

###

# target or system: catalytic domain 2 (CD2) of HDAC6 (Homo sapiens (Human), UniProt Q9UBN7)
# test summary: Cellular target engagement assay - NanoBRET
# condition notes: NanoLuc-HDAC6(CD2) in HEK293T cells, 2 hours, read-out: IC50 (HDAC6(CD2) interaction)
pIC50: −log10 of the molar value.
endpoint label: pIC50

Name the reported pIC50 value associated with the molecule "Cn1ncc2c(SCC(=O)c3ccc(CNC(=O)C(C)(C)C)s3)nc(C(F)(F)F)nc21" 6.30 to 7.00

###

# target or system: catalytic domain 2 (CD2) of HDAC6 (Homo sapiens (Human), UniProt Q9UBN7)
# test summary: Cellular target engagement assay - NanoBRET
# condition notes: NanoLuc-HDAC6(CD2) in HEK293T cells, 2 hours, read-out: IC50 (HDAC6(CD2) interaction)
Quick reference for IC50 among some compounds

Consider the worked cases shown below.
> print(dat)
                                   compound             value
1  Cc1nc(SCC(=O)c2ccc(CNC(=O)C(C)(C)C)s2)c2ccc(Cl)cc2n1 [Example 8]     100 to 500 nM
2  Cn1c(SCC(=O)c2ccc(CNC(=O)CO)s2)nc2ccccc21 [Example 169]  1000 to 10000 nM

Here is another compound to look at.
Given the compound CN(Cc1ccc(C(=O)CSc2ncnc3c2cnn3C)s1)S(=O)(=O)C1CC1 [Compound 91] , what is its reported IC50? 100 to 500 nM
